Assay: Volume of distribution at steady state in rat at 4 mg/kg, iv
Format: ADME, organism-based
Design: dose 4 mg/kg, route intravenous
Settings: in vivo, read-out: Vdss
measured-parameter: Vd (L/kg)
Write it as a number; the unit L/kg goes unstated.

structure-notation	units-symbol	Vd
COc1ccc2c(O[C@@H]3C[C@H]4C(=O)N[C@]5(C(=O)NS(=O)(=O)C6CC6)C[C@H]5/C=C\CCCCC[C@H](NC(=O)c5ccn(CC(F)(F)F)n5)C(=O)N4C3)cc(OC(C)C)nc2c1C	L/kg	3.3
COc1ccc2c(O[C@@H]3C[C@H]4C(=O)N[C@]5(C(=O)NS(=O)(=O)C6(C)CC6)C[C@H]5/C=C\CCCCC[C@H](NC(=O)c5ccn(C)n5)C(=O)N4C3)cc(OC(C)C)nc2c1C	L/kg	0.97
COc1ccc2c(O[C@@H]3C[C@H]4C(=O)N[C@]5(C(=O)NS(=O)(=O)C6(C)CC6)C[C@H]5/C=C\CCCCC[C@H](NC(=O)c5cnn(C)n5)C(=O)N4C3)cc(OC(C)C)nc2c1C	L/kg	2

Enquiry: // query Vd value for entry `COc1ccc2c(O[C@@H]3C[C@H]4C(=O)N[C@]5(C(=O)NS(=O)(=O)C6CC6)C[C@H]5/C=C\CCCCC[C@H](NC(=O)c5ccn(CC(F)F)n5)C(=O)N4C3)cc(OC(C)C)nc2c1C`
Return: 0.86

###

Assay: AUC in rat at 10 mg/kg, po
Type: ADME, organism-based
Design: dose 10 mg/kg, route oral
Settings: plasma
Reported AUC values are given for each entry in this list.

Consider the reported AUC for these compounds:
structure-notation	AUC
COc1ccc2c(O[C@@H]3C[C@H]4C(=O)N[C@]5(C(=O)NS(=O)(=O)C6(C)CC6)C[C@H]5/C=C\CCCCC[C@H](NC(=O)c5cnn(C)n5)C(=O)N4C3)cc(OC(C)C)nc2c1C	1.4 µM·h
COc1ccc2c(O[C@@H]3C[C@H]4C(=O)N[C@]5(C(=O)NS(=O)(=O)C6CC6)C[C@H]5/C=C\CCCCC[C@H](NC(=O)c5ccn(CC(F)(F)F)n5)C(=O)N4C3)cc(OC(C)C)nc2c1C	1.3 µM·h
COc1ccc2c(O[C@@H]3C[C@H]4C(=O)N[C@]5(C(=O)NS(=O)(=O)C6(C)CC6)C[C@H]5/C=C\CCCCC[C@H](NC(=O)c5ccn(C)n5)C(=O)N4C3)cc(OC(C)C)nc2c1C	1.4 µM·h

Enquiry: // query AUC value for entry `COc1ccc2c(O[C@@H]3C[C@H]4C(=O)N[C@]5(C(=O)NS(=O)(=O)C6CC6)C[C@H]5/C=C\CCCCC[C@H](NC(=O)c5ccn(CC(F)F)n5)C(=O)N4C3)cc(OC(C)C)nc2c1C`
Return: 0.36 µM·h

###

Assay: Cmax in rat at 10 mg/kg, po
Type: ADME, organism-based
Set-up: dose 10 mg/kg, route oral
Settings: in vivo
measured-parameter: Cmax
Answer with the figure and its unit, nothing else.

structure-notation	Cmax
COc1ccc2c(O[C@@H]3C[C@H]4C(=O)N[C@]5(C(=O)NS(=O)(=O)C6(C)CC6)C[C@H]5/C=C\CCCCC[C@H](NC(=O)c5ccn(C)n5)C(=O)N4C3)cc(OC(C)C)nc2c1C	1300 nM

Enquiry: // query Cmax value for entry `COc1ccc2c(O[C@@H]3C[C@H]4C(=O)N[C@]5(C(=O)NS(=O)(=O)C6(C)CC6)C[C@H]5/C=C\CCCCC[C@H](NC(=O)c5cnn(C)n5)C(=O)N4C3)cc(OC(C)C)nc2c1C`
Return: 870 nM

Enquiry: Same read-out for `COc1ccc2c(O[C@@H]3C[C@H]4C(=O)N[C@]5(C(=O)NS(=O)(=O)C6CC6)C[C@H]5/C=C\CCCCC[C@H](NC(=O)c5ccn(CC(F)(F)F)n5)C(=O)N4C3)cc(OC(C)C)nc2c1C` ?
Return: 880 nM

Enquiry: Same read-out for `COc1ccc2c(O[C@@H]3C[C@H]4C(=O)N[C@]5(C(=O)NS(=O)(=O)C6CC6)C[C@H]5/C=C\CCCCC[C@H](NC(=O)c5ccn(CC(F)F)n5)C(=O)N4C3)cc(OC(C)C)nc2c1C` ?
Return: 300 nM

###

Reported bioavailability values are given for each entry in this list.
Assay: Oral bioavailability in rat at 10 mg/kg
Format: ADME, organism-based
Details: in vivo
Answer with the figure and its unit, nothing else.

Consider the reported bioavailability for these compounds:
structure-notation	measurement
COc1ccc2c(O[C@@H]3C[C@H]4C(=O)N[C@]5(C(=O)NS(=O)(=O)C6CC6)C[C@H]5/C=C\CCCCC[C@H](NC(=O)c5ccn(CC(F)(F)F)n5)C(=O)N4C3)cc(OC(C)C)nc2c1C	11%
COc1ccc2c(O[C@@H]3C[C@H]4C(=O)N[C@]5(C(=O)NS(=O)(=O)C6(C)CC6)C[C@H]5/C=C\CCCCC[C@H](NC(=O)c5ccn(C)n5)C(=O)N4C3)cc(OC(C)C)nc2c1C	14%
COc1ccc2c(O[C@@H]3C[C@H]4C(=O)N[C@]5(C(=O)NS(=O)(=O)C6CC6)C[C@H]5/C=C\CCCCC[C@H](NC(=O)c5ccn(CC(F)F)n5)C(=O)N4C3)cc(OC(C)C)nc2c1C	6.1%

API: the following record is the query input.
Enquiry: // query bioavailability value for entry `COc1ccc2c(O[C@@H]3C[C@H]4C(=O)N[C@]5(C(=O)NS(=O)(=O)C6(C)CC6)C[C@H]5/C=C\CCCCC[C@H](NC(=O)c5cnn(C)n5)C(=O)N4C3)cc(OC(C)C)nc2c1C`
Return: 16%

###

System: Liver
Experiment: Liver-to-plasma partition coefficient in rat
measured-parameter: Kp
Answer with a number only.

structure-notation	measurement
COc1ccc2c(O[C@@H]3C[C@H]4C(=O)N[C@]5(C(=O)NS(=O)(=O)C6CC6)C[C@H]5/C=C\CCCCC[C@H](NC(=O)c5ccn(CC(F)(F)F)n5)C(=O)N4C3)cc(OC(C)C)nc2c1C	360

API: the following record is the query input.
Enquiry: // query Kp value for entry `COc1ccc2c(O[C@@H]3C[C@H]4C(=O)N[C@]5(C(=O)NS(=O)(=O)C6CC6)C[C@H]5/C=C\CCCCC[C@H](NC(=O)c5ccn(CC(F)F)n5)C(=O)N4C3)cc(OC(C)C)nc2c1C`
Return: 323

###

Reported concentration at 8 h values are given for each entry in this list.
Assay: Drug uptake in rat liver after 8 hrs
Type: ADME, tissue-based
Settings: read-out: Drug uptake
Write it as a number; the unit µM goes unstated.

Consider the reported concentration at 8 h for these compounds:
structure-notation	units-symbol	concentration at 8 h
COc1ccc2c(O[C@@H]3C[C@H]4C(=O)N[C@]5(C(=O)NS(=O)(=O)C6(C)CC6)C[C@H]5/C=C\CCCCC[C@H](NC(=O)c5ccn(C)n5)C(=O)N4C3)cc(OC(C)C)nc2c1C	µM	56
COc1ccc2c(O[C@@H]3C[C@H]4C(=O)N[C@]5(C(=O)NS(=O)(=O)C6CC6)C[C@H]5/C=C\CCCCC[C@H](NC(=O)c5ccn(CC(F)(F)F)n5)C(=O)N4C3)cc(OC(C)C)nc2c1C	µM	11
COc1ccc2c(O[C@@H]3C[C@H]4C(=O)N[C@]5(C(=O)NS(=O)(=O)C6CC6)C[C@H]5/C=C\CCCCC[C@H](NC(=O)c5ccn(CC(F)F)n5)C(=O)N4C3)cc(OC(C)C)nc2c1C	µM	6.5

API: the following record is the query input.
Enquiry: // query concentration at 8 h value for entry `COc1ccc2c(O[C@@H]3C[C@H]4C(=O)N[C@]5(C(=O)NS(=O)(=O)C6(C)CC6)C[C@H]5/C=C\CCCCC[C@H](NC(=O)c5cnn(C)n5)C(=O)N4C3)cc(OC(C)C)nc2c1C`
Return: 73
